Tested on: ACHN
Assay: AUC of dose-response viability curve, drug alone (arbitrary (AUC of normalised viability)); higher = less growth inhibition
Conditions: treatment: drug alone; 5 days
// AUC of dose-response viability curve lookup, one value per entry

compound	AUC of dose-response viability curve
Cc1cc(CN2CCN(c3c(Br)cnc4[nH]c(-c5ccc(N6CCN(C)CC6)cc5)nc34)CC2)no1	2.36
CC(C)(C)c1nc(-c2cccc(NS(=O)(=O)c3c(F)cccc3F)c2F)c(-c2ccnc(N)n2)s1	2.19
Nc1cccc2c1CN(C1CCC(=O)NC1=O)C2=O (stereo unspecified) [Lenalidomide (Revlimid)]	3.29
CC[C@H](CO)Nc1nc(NCc2ccccc2)c2ncn(C(C)C)c2n1 [Roscovitine (Seliciclib, CYC202)]	3.25
COc1cc2nccc(Oc3ccc(NC(=O)Nc4ccc(F)cc4F)c(F)c3)c2cc1OC	3.13
Cc1cn(-c2cc(NC(=O)c3ccc(C)c(Nc4nccc(-c5cccnc5)n4)c3)cc(C(F)(F)F)c2)cn1	3.32
COc1cc(Nc2ncc(F)c(Nc3ccc4c(n3)NC(=O)C(C)(C)O4)n2)cc(OC)c1OC.O=S(=O)(O)c1ccccc1	2.94
CC(C)NC[C@@H](C(=O)N1CCN(c2ncnc3c2[C@H](C)C[C@H]3O)CC1)c1ccc(Cl)cc1	2.85
Cc1cc(C(C)Nc2ccccc2)c2nc(N3CCOCC3)cc(=O)n2c1 (stereo unspecified)	3.15
C=CC(=O)Nc1cc2c(Nc3ccc(F)c(Cl)c3)ncnc2cc1OCCCN1CCOCC1	2.09
OCc1ccc(-c2ccc(-c3ccc(CO)s3)o2)s1	1.76
CCN1CCN(C(=O)Cc2ccc(Nc3ncc(F)c(Nc4ccc(C(=O)Nc5ccccc5Cl)cc4)n3)cc2)CC1	2.17
Br.Cc1ccc(C(=O)Cn2c3c(sc2=N)CCCC3)cc1	3.14
CCCNC(=O)Nc1ccc(Oc2ncnc3cc(OC)c(OC)cc23)cc1Cl	2.92
CNC(=O)c1ccc(C)c(-n2c(C)cc(OCc3ccc(F)cc3F)c(Br)c2=O)c1	2.53
CC(C)c1cnn2c(NCc3ccccc3)cc(NCCCCCCN)nc12.Cl [BS-181 HCl]	3.3

* * *

Test system: 786-O
Assay: GI50 of drug in presence of dasatinib; higher = less potent
Conditions: treatment: drug + dasatinib (fixed dose, not stated); 5 days
// returns not fulfilled unless GI50 of drug is strictly below 400 nM, in which case fulfilled

compound	assigned.label
CC1(COc2ccc3c(c2)ncn3-c2ccc3cccc(N4CCC(N)CC4)c3n2)COC1 + Cc1nc(Nc2ncc(C(=O)Nc3c(C)cccc3Cl)s2)cc(N2CCN(CCO)CC2)n1	fulfilled
Cn1c(=O)n(-c2ccc(C(C)(C)C#N)cc2)c2c3cc(-c4cnc5ccccc5c4)ccc3ncc21 [BEZ235 (NVP-BEZ235)] + Cc1nc(Nc2ncc(C(=O)Nc3c(C)cccc3Cl)s2)cc(N2CCN(CCO)CC2)n1	fulfilled
COc1cc(Nc2c(C#N)cnc3cc(OCCCN4CCN(C)CC4)c(OC)cc23)c(Cl)cc1Cl [Bosutinib (SKI-606)] + Cc1nc(Nc2ncc(C(=O)Nc3c(C)cccc3Cl)s2)cc(N2CCN(CCO)CC2)n1	not fulfilled
CN(C[C@@H]1COCCO1)S(=O)(=O)Nc1ccc2ccc3ncc(-c4cnn(C)c4)cc3c(=O)c2c1 [MK-2461] + Cc1nc(Nc2ncc(C(=O)Nc3c(C)cccc3Cl)s2)cc(N2CCN(CCO)CC2)n1	not fulfilled
CC(C)NC[C@@H](C(=O)N1CCN(c2ncnc3c2[C@H](C)C[C@H]3O)CC1)c1ccc(Cl)cc1 [GDC-0068] + Cc1nc(Nc2ncc(C(=O)Nc3c(C)cccc3Cl)s2)cc(N2CCN(CCO)CC2)n1	fulfilled
Cl.N=C(N)NC(=N)NCCc1ccccc1 [Phenformin hydrochloride] + Cc1nc(Nc2ncc(C(=O)Nc3c(C)cccc3Cl)s2)cc(N2CCN(CCO)CC2)n1	not fulfilled
Cc1ccccc1-n1c(Cn2ncc3c(N)ncnc32)nc2cccc(C)c2c1=O [PIK-293] + Cc1nc(Nc2ncc(C(=O)Nc3c(C)cccc3Cl)s2)cc(N2CCN(CCO)CC2)n1	not fulfilled
CCOc1cc2ncc(C#N)c(Nc3ccc(OCc4ccccn4)c(Cl)c3)c2cc1NC(=O)/C=C/CN(C)C [Neratinib (HKI-272)] + Cc1nc(Nc2ncc(C(=O)Nc3c(C)cccc3Cl)s2)cc(N2CCN(CCO)CC2)n1	not fulfilled
C=CC(=O)Nc1cc2c(Nc3ccc(F)c(Cl)c3)ncnc2cc1OCCCN1CCOCC1 [CI-1033 (Canertinib)] + Cc1nc(Nc2ncc(C(=O)Nc3c(C)cccc3Cl)s2)cc(N2CCN(CCO)CC2)n1	not fulfilled
O=C(NOCC1CC1)c1ccc(F)c(F)c1Nc1ccc(I)cc1Cl + Cc1nc(Nc2ncc(C(=O)Nc3c(C)cccc3Cl)s2)cc(N2CCN(CCO)CC2)n1	not fulfilled
Cn1cc(-c2ccc3ncc(Cc4ccc5ncccc5c4)n3n2)cn1 [NVP-BVU972] + Cc1nc(Nc2ncc(C(=O)Nc3c(C)cccc3Cl)s2)cc(N2CCN(CCO)CC2)n1	fulfilled
Cn1cnc(N)c2ncnc1-2 [3-Methyladenine] + Cc1nc(Nc2ncc(C(=O)Nc3c(C)cccc3Cl)s2)cc(N2CCN(CCO)CC2)n1	not fulfilled
OCCn1cc(-c2ccc3c(c2)CC/C3=N\O)c(-c2ccncc2)n1 [GDC-0879] + Cc1nc(Nc2ncc(C(=O)Nc3c(C)cccc3Cl)s2)cc(N2CCN(CCO)CC2)n1	not fulfilled
CCCCOc1c(C(=O)c2c(F)cc(C)cc2F)cnc2[nH]ncc12 + Cc1nc(Nc2ncc(C(=O)Nc3c(C)cccc3Cl)s2)cc(N2CCN(CCO)CC2)n1	fulfilled
CC1(C)CNc2cc(NC(=O)c3cccnc3NCc3ccncc3)ccc21.O=P(O)(O)O.O=P(O)(O)O [Motesanib Diphosphate] + Cc1nc(Nc2ncc(C(=O)Nc3c(C)cccc3Cl)s2)cc(N2CCN(CCO)CC2)n1	not fulfilled
Cn1cc(-c2ccc3nnc(C(F)(F)c4ccc5ncccc5c4)n3n2)cn1 + Cc1nc(Nc2ncc(C(=O)Nc3c(C)cccc3Cl)s2)cc(N2CCN(CCO)CC2)n1	not fulfilled
CC[C@@H]1C(=O)N(C)c2cnc(Nc3ccc(C(=O)N[C@H]4CC[C@H](N5CCN(CC6CC6)CC5)CC4)cc3OC)nc2N1C(C)C [BI6727 (Volasertib)] + Cc1nc(Nc2ncc(C(=O)Nc3c(C)cccc3Cl)s2)cc(N2CCN(CCO)CC2)n1	fulfilled

Origin of values: the supplement of paper PMC8149375
